pIC50: −log10 of the molar value. Structures can show the parent of a compound that is named as a salt.
The reader will find pIC50 measurements below, all made with MERTK (Homo sapiens, UniProt Q12866).
Sequence (Q12866 21-999): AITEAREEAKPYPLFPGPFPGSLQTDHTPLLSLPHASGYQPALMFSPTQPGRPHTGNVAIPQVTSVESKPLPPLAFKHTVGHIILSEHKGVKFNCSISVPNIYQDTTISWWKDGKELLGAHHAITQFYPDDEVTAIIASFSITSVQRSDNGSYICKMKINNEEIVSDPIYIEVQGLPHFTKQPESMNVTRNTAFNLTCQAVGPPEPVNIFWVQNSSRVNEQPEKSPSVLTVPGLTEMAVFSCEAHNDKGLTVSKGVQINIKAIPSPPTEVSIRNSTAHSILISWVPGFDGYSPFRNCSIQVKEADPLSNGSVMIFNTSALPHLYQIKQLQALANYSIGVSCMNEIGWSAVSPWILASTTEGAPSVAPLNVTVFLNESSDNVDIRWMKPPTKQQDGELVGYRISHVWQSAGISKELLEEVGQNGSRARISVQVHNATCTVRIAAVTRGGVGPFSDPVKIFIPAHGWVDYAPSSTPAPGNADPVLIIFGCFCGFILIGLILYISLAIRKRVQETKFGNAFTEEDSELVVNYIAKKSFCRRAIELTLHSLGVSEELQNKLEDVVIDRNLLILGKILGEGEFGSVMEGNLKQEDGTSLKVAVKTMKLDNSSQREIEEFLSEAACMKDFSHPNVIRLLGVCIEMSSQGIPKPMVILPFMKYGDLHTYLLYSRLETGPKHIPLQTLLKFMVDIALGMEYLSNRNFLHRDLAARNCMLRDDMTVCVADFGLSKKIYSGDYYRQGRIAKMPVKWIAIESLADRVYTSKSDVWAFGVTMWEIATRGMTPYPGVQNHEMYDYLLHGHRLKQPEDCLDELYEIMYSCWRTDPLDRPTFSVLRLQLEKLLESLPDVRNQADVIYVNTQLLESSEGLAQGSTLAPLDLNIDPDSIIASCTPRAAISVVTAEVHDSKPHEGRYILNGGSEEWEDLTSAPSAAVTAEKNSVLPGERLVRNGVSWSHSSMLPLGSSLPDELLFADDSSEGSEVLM

Example entries begin here.
1. COCCN1C(C)(C)CC(Oc2ncc([C@H]3CC[C@H](O)CC3)c3nc(N[C@@H](C)CC(F)(F)F)ncc23)CC1(C)C [Compound 355]: ≥ 7.00
2. CN1C[C@@H](Nc2ncc3c(OC4CCOCC4)ncc([C@H]4CC[C@H](O)CC4)c3n2)CC1=O [Compound 324]: 6.00 to 7.00
3. O[C@H]1CC[C@H](c2cnc(OC3CCNCC3)c3cnc(NC4CCCCC4)nc32)CC1 [Compound 183]: ≥ 7.00
4. CNC(=O)N1CCC(c2cnc(OC3CCOCC3)c3cnc(N[C@@H](C)COC)nc23)CC1 [Compound 345]: 6.00 to 7.00
5. CO[C@H]1C[C@@H](Oc2ncc([C@H]3CC[C@H](O)CC3)c3nc(N[C@@H](C)CC(F)(F)F)ncc23)C1 [Compound 434]: ≥ 7.00
6. O[C@H]1CC[C@H](c2cnc(OC3CCOCC3)c3cnc(N[C@H]4CCC(F)(F)C4)nc32)CC1 [Compound 336]: ≥ 7.00

So what does the record say about pIC50 for C[C@@H](CC(F)(F)F)Nc1ncc2c(O[C@@H]3C[C@H]4CC[C@@H](C3)N4C[C@H]3CCCO3)ncc([C@H]3CC[C@H](O)CC3)c2n1 [Compound 412] ? ≥ 7.00

Same question for CCCCNc1cc2c(cn1)c(=O)n(C1CCNCC1)cc2[C@H]1CC[C@H](O)CC1 [Compound 109, hydrochloride] please. ≥ 7.00

Similarly, COC[C@H](C)Nc1ncc2c(OC3CCOCC3)ncc(-c3ccc(F)cc3)c2n1 [Compound 395] ? 6.00 to 7.00

====

AXL (Homo sapiens, UniProt P30530): recorded pIC50 for assorted compounds
Sequence (P30530 26-894): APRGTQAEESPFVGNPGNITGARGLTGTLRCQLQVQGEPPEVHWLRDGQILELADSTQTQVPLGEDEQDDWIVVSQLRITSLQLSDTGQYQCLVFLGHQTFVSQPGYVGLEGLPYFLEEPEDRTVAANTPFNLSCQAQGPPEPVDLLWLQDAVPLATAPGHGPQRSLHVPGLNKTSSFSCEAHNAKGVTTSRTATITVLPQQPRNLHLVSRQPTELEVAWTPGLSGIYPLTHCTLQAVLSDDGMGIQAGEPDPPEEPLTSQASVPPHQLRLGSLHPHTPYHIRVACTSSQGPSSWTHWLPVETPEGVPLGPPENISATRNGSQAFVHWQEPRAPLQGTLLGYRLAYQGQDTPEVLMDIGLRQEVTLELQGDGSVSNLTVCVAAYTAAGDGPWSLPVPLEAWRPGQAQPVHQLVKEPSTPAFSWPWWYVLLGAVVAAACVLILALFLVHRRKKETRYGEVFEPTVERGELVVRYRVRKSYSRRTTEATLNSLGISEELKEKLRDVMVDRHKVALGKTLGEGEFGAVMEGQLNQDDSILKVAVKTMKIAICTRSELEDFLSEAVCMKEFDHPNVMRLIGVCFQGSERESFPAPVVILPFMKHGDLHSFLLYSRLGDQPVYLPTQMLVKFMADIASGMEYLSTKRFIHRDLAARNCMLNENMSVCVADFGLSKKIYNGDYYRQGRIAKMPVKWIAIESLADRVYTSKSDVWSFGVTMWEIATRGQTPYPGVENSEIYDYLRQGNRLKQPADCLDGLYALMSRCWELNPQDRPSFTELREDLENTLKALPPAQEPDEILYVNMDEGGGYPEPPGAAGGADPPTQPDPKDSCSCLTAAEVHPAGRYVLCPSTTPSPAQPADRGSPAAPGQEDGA
pIC50: −log10 of the molar value.

1. CCOc1ncc(CC2CCN(C(=O)OC(C)(C)C)CC2)c2nc(N[C@@H](C)CC)ncc12 [Compound 254]: 5.00 to 6.00
2. CCC1(Nc2ncc3c(OC4CCOCC4)ncc([C@H]4CC[C@H](O)CC4)c3n2)CC1 [Compound 339]: 6.00 to 7.00
3. CCCC(C)Nc1ncc2c(OC3CC(C)(C)N(C)C(C)(C)C3)ncc([C@H]3CC[C@H](O)CC3)c2n1 (stereo partly shown) [Compound 161]: ≥ 7.00
4. CCCCC[C@H](C)Nc1ncc2c(OC3CCNCC3)ncc([C@H]3CC[C@H](O)CC3)c2n1 [Compound 121]: 6.00 to 7.00
5. COCCN1C(C)(C)CC(Oc2ncc([C@H]3CC[C@H](O)CC3)c3nc(N[C@@H](C)COC)ncc23)CC1(C)C [Compound 310]: ≥ 7.00

May I ask what pIC50 has been recorded for CC1CC(Nc2ncc3c(OC4CCNCC4)ncc([C@H]4CC[C@@H](O)CC4)c3n2)C1 (stereo partly shown) [Compound 168] ? 6.00 to 7.00

What do you have for CC[C@H](C)Nc1ncc2c(=O)n(C3CCN(S(C)(=O)=O)CC3)cc([C@H]3CC[C@H](O)CC3)c2n1 [Compound 234] ? 6.00 to 7.00

Then CCCCC[C@H](C)Nc1ncc2c(OC3CCNCC3)ncc([C@H]3CC[C@H](O)CC3)c2n1 [Compound 130] ? ≥ 7.00

Moving on to the next compound: CC[C@H](C)Nc1ncc2c(NC3CCOCC3)ncc([C@H]3CC[C@H](O)CC3)c2n1 [Compound 217] 5.00 to 6.00

Lookup CC(C)C(C)Nc1ncc2c(OC3CCNCC3)ncc([C@H]3CC[C@H](O)CC3)c2n1 (stereo partly shown) [Compound 178] 6.00 to 7.00

Okay, and CC[C@H](C)Nc1ncc2c(O[C@H]3CC[C@H](C(C)(C)O)CC3)ncc([C@H]3CC[C@H](O)CC3)c2n1 [Compound 261] ? 6.00 to 7.00

And O[C@H]1CC[C@H](c2cnc(OC3CCOCC3)c3cnc(N[C@H]4CCNC4)nc32)CC1 [Compound 277] ? 5.00 to 6.00

Input C[C@@H](CC(F)(F)F)Nc1ncc2c(OC3CC(C)(C)N(C)C(C)(C)C3)ncc([C@H]3CC[C@H](O)CC3)c2n1 [Compound 386] ≥ 7.00

What would you report for CCCC(C)Nc1ncc2c(OC3CCOCC3)ncc([C@H]3CC[C@H](O)CC3)c2n1 (stereo partly shown) [Compound 133] ? 6.00 to 7.00

Queued: CCCC(C)Nc1ncc2c(=O)n(C3CCN(C)CC3)cc([C@H]3CC[C@H](O)CC3)c2n1 (stereo partly shown) [Compound 117] 6.00 to 7.00

Now consider COCC(C)Nc1ncc2c(=O)n(C3CCN(C)CC3)cc([C@H]3CC[C@H](O)CC3)c2n1 (stereo partly shown) [Compound 118] . 6.00 to 7.00

Now this one: CCC(CC)Nc1ncc2c(OC3CCNCC3)ncc([C@H]3CC[C@H](O)CC3)c2n1 [Compound 228] 6.00 to 7.00

Queued: COC[C@H](C)Nc1ncc2c(O[C@H]3C[C@@H](O)C3)ncc([C@H]3CC[C@H](O)CC3)c2n1 [Compound 296] 6.00 to 7.00

Lookup O[C@H]1CC[C@H](c2cnc(OC3CCNCC3)c3cnc(NC4CCCCC4)nc32)CC1 [Compound 183] 6.00 to 7.00
